Assay: in vivo
Conditions: cynomolgus monkey, po, 10 mg/kg
measured endpoint: Tmax (min)

>>> recorded_result("C[C@@H]1COCCN1c1cc(N=[S@@](C)(=O)C2CC2)nc(-c2ccnc(N)c2)n1")
49.8

----------
Target: Serine/threonine-protein kinase ATR (Homo sapiens)
Sequence (Q13535 whole entry): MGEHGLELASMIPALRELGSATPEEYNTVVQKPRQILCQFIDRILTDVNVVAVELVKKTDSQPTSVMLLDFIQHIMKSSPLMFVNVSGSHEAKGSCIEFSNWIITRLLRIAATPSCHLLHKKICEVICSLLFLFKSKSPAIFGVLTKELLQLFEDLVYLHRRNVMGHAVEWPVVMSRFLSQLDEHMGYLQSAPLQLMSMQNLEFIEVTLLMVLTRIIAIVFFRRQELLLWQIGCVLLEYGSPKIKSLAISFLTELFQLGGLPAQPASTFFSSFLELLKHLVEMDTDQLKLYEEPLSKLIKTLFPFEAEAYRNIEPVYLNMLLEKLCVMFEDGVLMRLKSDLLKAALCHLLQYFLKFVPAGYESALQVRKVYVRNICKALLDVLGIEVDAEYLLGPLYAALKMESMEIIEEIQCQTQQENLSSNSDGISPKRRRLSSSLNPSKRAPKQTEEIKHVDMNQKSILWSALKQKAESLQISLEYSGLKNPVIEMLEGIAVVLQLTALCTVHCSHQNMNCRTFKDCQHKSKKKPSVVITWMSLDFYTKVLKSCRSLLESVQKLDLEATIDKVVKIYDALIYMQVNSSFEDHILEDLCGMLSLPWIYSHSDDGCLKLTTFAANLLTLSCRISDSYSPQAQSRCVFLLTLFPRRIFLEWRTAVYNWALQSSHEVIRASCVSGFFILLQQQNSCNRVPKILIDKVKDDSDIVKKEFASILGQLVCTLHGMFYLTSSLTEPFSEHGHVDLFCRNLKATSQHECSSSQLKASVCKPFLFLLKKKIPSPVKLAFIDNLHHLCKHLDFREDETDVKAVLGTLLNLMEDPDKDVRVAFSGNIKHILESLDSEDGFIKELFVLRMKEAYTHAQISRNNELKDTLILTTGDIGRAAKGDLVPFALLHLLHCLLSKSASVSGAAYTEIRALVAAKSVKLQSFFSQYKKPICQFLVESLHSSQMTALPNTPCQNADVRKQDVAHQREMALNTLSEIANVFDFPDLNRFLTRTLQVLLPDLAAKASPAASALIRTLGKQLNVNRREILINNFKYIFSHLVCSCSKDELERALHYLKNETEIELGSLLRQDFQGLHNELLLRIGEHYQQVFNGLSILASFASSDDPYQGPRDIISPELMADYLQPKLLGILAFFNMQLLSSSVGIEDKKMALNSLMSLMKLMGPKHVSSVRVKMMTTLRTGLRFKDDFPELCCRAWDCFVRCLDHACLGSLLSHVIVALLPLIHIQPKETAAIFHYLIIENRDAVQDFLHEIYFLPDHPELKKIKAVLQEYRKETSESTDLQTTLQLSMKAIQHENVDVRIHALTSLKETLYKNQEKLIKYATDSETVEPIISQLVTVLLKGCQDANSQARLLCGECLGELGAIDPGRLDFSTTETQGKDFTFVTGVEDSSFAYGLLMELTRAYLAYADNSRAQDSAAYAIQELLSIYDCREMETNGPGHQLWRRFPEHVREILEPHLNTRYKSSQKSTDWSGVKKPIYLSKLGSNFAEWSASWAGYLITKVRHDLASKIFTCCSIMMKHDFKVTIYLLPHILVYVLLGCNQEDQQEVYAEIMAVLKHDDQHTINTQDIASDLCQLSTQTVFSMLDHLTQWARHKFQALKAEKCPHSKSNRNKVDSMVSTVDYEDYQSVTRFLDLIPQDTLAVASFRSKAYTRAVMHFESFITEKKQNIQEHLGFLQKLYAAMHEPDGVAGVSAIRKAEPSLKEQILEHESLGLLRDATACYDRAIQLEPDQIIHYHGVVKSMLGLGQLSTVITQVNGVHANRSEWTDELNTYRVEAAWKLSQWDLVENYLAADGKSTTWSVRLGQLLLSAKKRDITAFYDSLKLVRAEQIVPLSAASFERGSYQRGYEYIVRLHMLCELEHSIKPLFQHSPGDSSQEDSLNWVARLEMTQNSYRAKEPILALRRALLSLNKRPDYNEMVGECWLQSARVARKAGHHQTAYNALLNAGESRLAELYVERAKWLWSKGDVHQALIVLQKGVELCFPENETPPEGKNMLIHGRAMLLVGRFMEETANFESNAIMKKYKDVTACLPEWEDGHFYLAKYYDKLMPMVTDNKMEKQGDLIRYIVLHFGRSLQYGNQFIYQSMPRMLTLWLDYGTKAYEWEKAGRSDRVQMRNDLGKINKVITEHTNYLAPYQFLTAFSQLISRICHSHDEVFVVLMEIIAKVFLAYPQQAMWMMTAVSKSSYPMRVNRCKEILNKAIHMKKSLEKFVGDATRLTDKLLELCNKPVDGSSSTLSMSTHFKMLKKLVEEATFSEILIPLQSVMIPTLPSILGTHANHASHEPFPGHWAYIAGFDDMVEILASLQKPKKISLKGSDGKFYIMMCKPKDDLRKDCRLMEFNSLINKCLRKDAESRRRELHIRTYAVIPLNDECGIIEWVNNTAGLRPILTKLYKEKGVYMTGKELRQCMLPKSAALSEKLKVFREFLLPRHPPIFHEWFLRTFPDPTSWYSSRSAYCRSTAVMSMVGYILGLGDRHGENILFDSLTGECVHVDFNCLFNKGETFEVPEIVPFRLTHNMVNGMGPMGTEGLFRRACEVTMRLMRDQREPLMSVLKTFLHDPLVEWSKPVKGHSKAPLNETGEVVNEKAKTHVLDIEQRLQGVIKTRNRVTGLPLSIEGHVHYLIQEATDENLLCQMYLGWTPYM
measured endpoint: IC50

>>> recorded_result("C[C@@H]1COCCN1c1cc(N=S(C)(C)=O)nc(-c2ccnc(N)c2)c1")
"0.875 µM"

----------
Experiment: in vivo
Settings: Sprague-Dawley, rat, po, 10 mg/kg
measured endpoint: bioavailability (%)

>>> recorded_result("C[C@@H]1COCCN1c1cc(N=[S@@](C)(=O)C2CC2)nc(-c2ccnc(N)c2)n1")
58
